- Test system: CCRIS mutagenicity, Ames/micronucleus/aberration tests
- Assay summary: CCRIS mutagenicity studies
- Conditions: Test System: AMES SALMONELLA TYPHIMURIUM; Strain/Indicator: TA100; Metabolic Activation: RAT, LIVER, MICROSOMES; Method: PREINCUBATION
Active and inactive are the calls of the source. How the calls were made is not given here.
Possible outcomes: active, inactive

INSERT INTO assay_data (compound, category) VALUES
  ('CC(Br)C(Br)CCl (stereo unspecified)', 'active'),
  ('ClC[C@H](Br)CBr', 'active'),
  ('CC(OP(=O)(OC(C)C(Br)CBr)OC(C)C(Br)CBr)C(Br)CBr (stereo unspecified)', 'active'),
  ('CC(Cl)C(Br)CBr (stereo unspecified)', 'active'),
  ('O=CC(Br)CBr (stereo unspecified)', 'active'),
  ('c1ccc(N=Nc2ccccc2)cc1', 'inactive');

---

- Tested on: CCRIS mutagenicity, Ames/micronucleus/aberration tests
- Assay summary: CCRIS mutagenicity studies
- Conditions: Test System: AMES SALMONELLA TYPHIMURIUM; Strain/Indicator: TA98; Metabolic Activation: RAT, LIVER, S-9, AROCLOR; Method: PREINCUBATION
- Source text: The CCRIS database contains chemical records with carcinogenicity, mutagenicity, tumor promotion, and tumor inhibition test results. It was developed by the National Cancer Institute (NCI). Data are derived from studies cited in primary journals, current awareness tools, NCI reports, and other sources. Test results have been reviewed by experts in carcinogenesis and mutagenesis. CCRIS provides historical information from the years 1985 - 2011. It is no longer updated. […]
The source made the active and inactive calls. How the calls were made is not given here.
Classes used: active, inactive

INSERT INTO results (molecule, study_target, category) VALUES
  ('CC(O)C(C)[N+](=O)[O-] (configuration not stated)', 'CCRIS mutagenicity, Ames/micronucleus/aberration tests', 'inactive'),
  ('COC(=O)c1oc(N(OC(C)=O)C(C)=O)c(-c2ccccc2)c1-c1ccccc1', 'CCRIS mutagenicity, Ames/micronucleus/aberration tests', 'inactive'),
  ('COC(=O)c1oc(NO)c(-c2ccccc2)c1-c1ccccc1', 'CCRIS mutagenicity, Ames/micronucleus/aberration tests', 'inactive'),
  ('CC(CO)[N+](=O)[O-] (configuration not stated)', 'CCRIS mutagenicity, Ames/micronucleus/aberration tests', 'inactive'),
  ('O=C(O)c1ccc([N+](=O)[O-])cc1[N+](=O)[O-]', 'CCRIS mutagenicity, Ames/micronucleus/aberration tests', 'active'),
  ('CC(C)(N=O)[N+](=O)[O-]', 'CCRIS mutagenicity, Ames/micronucleus/aberration tests', 'inactive'),
  ('Cc1ccc(N)cc1N', 'CCRIS mutagenicity, Ames/micronucleus/aberration tests', 'active');

---

- Test system: CCRIS mutagenicity, Ames/micronucleus/aberration tests
- Assay summary: CCRIS mutagenicity studies
- Conditions: Test System: AMES SALMONELLA TYPHIMURIUM; Strain/Indicator: TA102; Metabolic Activation: RAT, LIVER, S-9, AROCLOR 1254; Method: STANDARD PLATE
Activity calls are given as the source filed them. No rule for the calls is given here.
Outcomes: active, inactive

INSERT INTO assay_data (compound, category) VALUES
  ('Cc1ccncc1', 'inactive'),
  ('CCOC(=O)c1[nH]c2ccccc2c1N=Cc1cc(OC)c(OC)c(OC)c1', 'inactive'),
  ('CN(C)C1Cc2cccc3cccc(c23)C1', 'inactive'),
  ('Cn1c([N+](=O)[O-])cnc1C1NC(CO)(CO)CO1 (stereo not drawn)', 'active'),
  ('NN1C(=O)c2ccccc2C1=O', 'inactive'),
  ('CNC(=O)c1cccc2c(Nc3ccc(NS(C)(=O)=O)cc3OC)c3cccc(C)c3nc12', 'active'),
  ('COc1c(Cl)cc2c(c1OC)N(C)[C@@H]1N3C(=O)[C@@]4(C)SS[C@@]3(C(=O)N4C)[C@H](O)[C@]21O', 'inactive'),
  ('COCCO', 'inactive'),
  ('CN(C)N', 'inactive'),
  ('O=c1[nH]c2c(c(=O)n1C1CCCCC1)CCC2', 'inactive'),
  ('C=C1CC/C=C(/C)CC[C@@H]2[C@@H]1CC2(C)C', 'inactive'),
  ('CC(C)CN(N)CC(C)C', 'inactive'),
  ('Cn1c([N+](=O)[O-])cnc1-c1nnc(N)s1', 'active');

---

- Test system: CCRIS mutagenicity, Ames/micronucleus/aberration tests
- Assay summary: CCRIS mutagenicity studies
- Conditions: Test System: AMES SALMONELLA TYPHIMURIUM; Strain/Indicator: TA104; Metabolic Activation: RAT, LIVER, S-9, AROCLOR 1254; Method: STANDARD PLATE
Calls of active or inactive are those of the source. The rule behind the calls is not given here.
Possible outcomes: active, inactive

INSERT INTO results (smiles_str, category) VALUES
  ('ClC(Cl)Br', 'active'),
  ('CN=C1C=CC(=C(c2ccc(NC)cc2)c2ccc(N(C)C)cc2)C=C1', 'inactive'),
  ('NN1C(=O)c2ccccc2C1=O', 'inactive'),
  ('ClCBr', 'inactive'),
  ('ClCCCl', 'active'),
  ('CC(=O)N(O)c1ccc(Cl)c(Cl)c1', 'inactive');

---

- Test system: CCRIS mutagenicity, Ames/micronucleus/aberration tests
- Assay summary: CCRIS mutagenicity studies
- Conditions: Test System: AMES SALMONELLA TYPHIMURIUM; Strain/Indicator: TA1538; Metabolic Activation: NONE; Method: PREINCUBATION
Active and inactive are the calls of the source. The rule behind the calls is not given here.
Labels: 1 = active, -1 = inactive

INSERT INTO measurements (compound, study_target, category) VALUES
  ('CC(Br)C(=O)O (stereo not drawn)', 'CCRIS mutagenicity, Ames/micronucleus/aberration tests', -1),
  ('COC(=O)c1ccc(C(=O)OC)cc1', 'CCRIS mutagenicity, Ames/micronucleus/aberration tests', -1),
  ('[Cl][Ni][Cl]', 'CCRIS mutagenicity, Ames/micronucleus/aberration tests', -1),
  ('N=C(N)N', 'CCRIS mutagenicity, Ames/micronucleus/aberration tests', -1),
  ('O=C(O)/C=C/c1ccc([N+](=O)[O-])cc1', 'CCRIS mutagenicity, Ames/micronucleus/aberration tests', 1),
  ('COc1cccc([N+](=O)[O-])c1', 'CCRIS mutagenicity, Ames/micronucleus/aberration tests', -1),
  ('O=C=Nc1ccc(Cc2ccc(N=C=O)cc2)cc1', 'CCRIS mutagenicity, Ames/micronucleus/aberration tests', -1),
  ('CCCCOC(C)=O', 'CCRIS mutagenicity, Ames/micronucleus/aberration tests', -1);

---

- System: CCRIS mutagenicity, Ames/micronucleus/aberration tests
- Assay summary: CCRIS mutagenicity studies
- Conditions: Test System: AMES SALMONELLA TYPHIMURIUM; Strain/Indicator: TA97; Metabolic Activation: HAMSTER, LIVER, S-9, AROCLOR 1254 (10 OR 30%); Method: PREINCUBATION
Active and inactive are the calls of the source. No rule for the calls is given here.
Outcomes: active, inactive

INSERT INTO measurements (smiles_str, category) VALUES
  ('CCCCN(CC)CC', 'inactive'),
  ('c1ccc2c(c1)Oc1ccccc1S2', 'inactive'),
  ('CC(=O)CC(C)C', 'inactive'),
  ('O=S(=O)(O)c1cc(S(=O)(=O)O)c2c(N=Nc3ccccc3)c(O)ccc2c1', 'inactive'),
  ('COCCO', 'inactive'),
  ('COc1ccc(N=[N+]([O-])c2ccc(OC)cc2)cc1', 'active'),
  ('Oc1cc(Cl)c(Cl)c(Cl)c1Cl', 'inactive'),
  ('Cc1ccccc1C#N', 'inactive'),
  ('CCCCOC(C)=O', 'inactive'),
  ('NC(=O)c1ccccc1', 'inactive'),
  ('CCOP(=S)(OCC)Oc1cc(C)nc(C(C)C)n1', 'inactive'),
  ('C=C(CC)C(=O)c1ccc(OCC(=O)O)c(Cl)c1Cl', 'inactive'),
  ('N[C@@H](Cc1c[nH]c2ccccc12)C(=O)O', 'inactive');

---

- System: CCRIS mutagenicity, Ames/micronucleus/aberration tests
- Assay summary: CCRIS mutagenicity studies
- Conditions: Test System: AMES SALMONELLA TYPHIMURIUM; Strain/Indicator: TA1537; Metabolic Activation: NONE; Method: STANDARD PLATE
- Source text: The CCRIS database contains chemical records with carcinogenicity, mutagenicity, tumor promotion, and tumor inhibition test results. It was developed by the National Cancer Institute (NCI). Data are derived from studies cited in primary journals, current awareness tools, NCI reports, and other sources. Test results have been reviewed by experts in carcinogenesis and mutagenesis. CCRIS provides historical information from the years 1985 - 2011. It is no longer updated. […]
Calls of active or inactive are those of the source. The rule behind the calls is not given here.
Possible outcomes: true (active), false (inactive)

INSERT INTO results (molecule, category) VALUES
  ('CN1CCN(C2=Nc3cc(Cl)ccc3Nc3ccccc32)CC1', 'false'),
  ('C[n+]1c2cc(N)ccc2cc2ccc(N)cc21 (tested in a mixture with another compound)', 'false'),
  ('Nc1ncn([C@@H]2O[C@H](CO)[C@@H](O)[C@@H]2O)c(=O)n1', 'false'),
  ('O=S(O)O', 'false'),
  ('O=C1NC(=O)C(c2ccccc2)(c2ccccc2)N1', 'false'),
  ('CCCO', 'false'),
  ('CC1CCCO1 (stereo unspecified)', 'false'),
  ('CC1=CC(=O)c2c(O)cccc2C1=O', 'false'),
  ('O=S(=O)(O)c1c(N=Nc2c(O)ccc3ccccc23)ccc2ccccc12', 'false'),
  ('NCCNC(=O)c1ccc(Cl)cn1', 'false'),
  ('COc1cc(C[C@@H]2NCCc3cc(O)c(O)cc32)cc(OC)c1OC', 'false'),
  ('Cc1cc(C)nc(SC(=O)OC(C)(C)C)n1', 'false'),
  ('CCC1(CC(=O)O)OCCc2c1[nH]c1c(C)cccc21 (stereo unspecified)', 'false'),
  ('COc1cccc2c1cc([N+](=O)[O-])c1c(C(=O)O)cc3c(c12)OCO3', 'true'),
  ('C[Si]1(C)O[Si](C)(C)O[Si](C)(C)O1', 'false'),
  ('C=CC(=O)OC', 'false'),
  ('CCOP(=S)(OCC)Oc1cc(C)nc(C(C)C)n1', 'false'),
  ('CC1(C)S[C@@H]2[C@H](NC(=O)Cc3ccccc3)C(=O)N2[C@H]1C(=O)O', 'false'),
  ('O=C(O)c1cc(=O)c2c(OCC(O)COc3cccc4oc(C(=O)O)cc(=O)c34)cccc2o1', 'false'),
  ('CCCCC(CC)COC(=O)c1ccc(N(C)N=O)cc1 (stereo unspecified)', 'false'),
  ('CN(C)c1ccc(C(=O)c2ccc(N(C)C)cc2)cc1', 'false'),
  ('COC(=O)c1ccc(C(=O)OC)cc1', 'false'),
  ('Nc1cc2nc3ccccc3nc2cc1N', 'true'),
  ('O=[N+]([O-])C1=Cc2c3ccc4ccccc4c3cc3cccc1c23', 'true'),
  ('FC(F)(F)C(F)(F)C(Cl)Cl', 'false'),
  ('[O]=[Cr](=[O])([OH])[O][Cr](=[O])(=[O])[OH]', 'false'),
  ('O=C1NCCN1c1ncc([N+](=O)[O-])s1', 'false'),
  ('CCO[Si](C)(OCC)OCC', 'false'),
  ('C#C[C@]1(OC(=O)CCCCCC)CC[C@H]2[C@@H]3CCC4=CC(=O)CC[C@@H]4[C@H]3CC[C@@]21C', 'false'),
  ('C=C(C)OC(C)=O', 'false'),
  ('CC(C)Cc1ccc(C(C)C(=O)O)cc1 (stereo unspecified)', 'false'),
  ('CCN(CC)c1ccc(N=Nc2c(Cl)cc([N+](=O)[O-])cc2Cl)cc1', 'false'),
  ('CC(C)(CO)[C@@H](O)C(=O)NCCCO', 'false'),
  ('CCC(=O)OCC(=O)[C@@]1(OC(=O)CC)[C@H](C)C[C@H]2[C@H]3[C@H]([C@@H](O)C[C@@]21C)[C@@]1(C)C=CC(=O)C=C1C[C@H]3Cl', 'false'),
  ('Cc1cc(N)cc(C)c1N', 'false'),
  ('O=[N+]([O-])c1cc(C(F)(F)F)cc([N+](=O)[O-])c1O', 'false'),
  ('CC[n+]1c(-c2ccccc2)c2cc(N)ccc2c2ccc(N)cc21', 'false'),
  ('O=c1[nH]c(=O)[nH]c(=O)[nH]1', 'false'),
  ('Nc1ccc2[nH]c3ccccc3c2c1', 'false'),
  ('NCC(=O)O', 'false'),
  ('CC(C)=CC1C(C(=O)O)C1(C)C (stereo unspecified)', 'false'),
  ('C/C=C\c1cc(OC)c(OC)cc1OC', 'false'),
  ('CCN(CC)c1cc(NC(C)=O)c(N=Nc2ccc([N+](=O)[O-])cc2)cc1OC', 'false'),
  ('CN(C)CCNC(=O)c1cccc2ncc(-c3ccccc3)nc12', 'true'),
  ('O=S(=O)(Nc1ccc(Cl)c(Cl)c1)c1cccc2cccnc12', 'false'),
  ('CCCCNc1snc2ccccc12', 'false'),
  ('O=[N+]([O-])C1=Cc2c3c1cccc3cc1ccc3ccccc3c21', 'true'),
  ('COc1c(Cl)cc2c(c1OC)N(C)[C@@H]1N3C(=O)[C@@]4(C)SS[C@@]3(C(=O)N4C)[C@H](O)[C@]21O', 'false'),
  ('O=C1C=CC(=O)CC(=O)C1', 'false'),
  ('Nc1ccc(Cl)cc1', 'false'),
  ('Oc1c(Br)cc(Br)cc1Br', 'false');
